biological target: T1, human wt-ERβ LBD (estrogen receptor beta ligand-binding domain, amino acids 261-502) (human, UniProt Q92731 261-502); assay: fluorescence polarisation; fluorescence anisotropy; 4 nM fluorescein-SRC-1 NR2 peptide, LBD diluted 2-fold from 10 uM (ERα) or 20 uM (ERβ); with chlordecone at 20 uM (ERα) or 40 uM (ERβ); 20 mM Tris pH 8.0, 150 mM NaCl, 5 mM DTT, 10% glycerol; settings: both partners purified
T1 construct: Cloned into pET-32a; N-terminal thioredoxine-hexahistidine tag removed with TEV protease; not shown: thioredoxin, N-terminal, cleaved; His6, N-terminal, cleaved
T1 sequence (Q92731 261-502): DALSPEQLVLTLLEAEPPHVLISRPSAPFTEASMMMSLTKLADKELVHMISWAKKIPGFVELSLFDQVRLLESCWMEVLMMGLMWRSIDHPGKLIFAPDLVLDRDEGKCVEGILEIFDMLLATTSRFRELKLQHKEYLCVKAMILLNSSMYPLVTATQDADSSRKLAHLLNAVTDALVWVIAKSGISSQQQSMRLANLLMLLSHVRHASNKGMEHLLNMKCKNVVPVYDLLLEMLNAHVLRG
Where no end group is shown, it is not given here. fluorescein = fluorescein label on the N-terminus of the peptide
quantity: Kd (µM)
Numbers only, in µM.

Find the measured Kd of fluorescein-RHKILHRLLQEGS (also called SRC-1 NR2 peptide; fluorescein-labeled SRC-1 NR2 peptide; source: bought: EZbiolab) [fluorescein-RHKILHRLLQEGS peptide corresponding to the NR box 2-binding motif of SRC-1] and report it.
9.13
